Catalogue of compounds with associated pIC50
# Test system: HCV replicon 1AY93H
# assay method text: microbe, parasite or virus in culture
# Type: cell-based, Hepatitis C virus (HCV)
# measurement setup: read-out: 1A Y93H IC50; replicon 1AY93H; Replicon Assay A
Scale explanation: pIC50 corresponds to minus log10 of a concentration expressed in moles per litre.

Consider the worked cases shown below.
compound	measured number
COC(=O)NC(C(=O)N1CCC[C@H]1c1ncc(-c2cc(F)c3c(c2)OC(c2ccc(C4CC4)s2)n2c-3cc3cc(-c4cnc([C@@H]5CCCN5C(=O)[C@@H](NC(=O)OC)C(C)C)[nH]4)ccc32)[nH]1)C(C)(C)F (single isomer, unassigned) [Compound 68]	9.92
COC(=O)NC(C(=O)N1CCC[C@H]1c1ncc(-c2ccc3c(c2)cc2n3C(c3cc(C)c(C)s3)Oc3cc(-c4cnc([C@@H]5CCCN5C(=O)[C@@H](NC(=O)OC)C(C)C)[nH]4)cc(F)c3-2)[nH]1)C(C)(C)F (single isomer, unassigned) [Compound 39]	9.92
CCc1ccc(C2Oc3cc(-c4c[nH]c([C@@H]5CCCN5C(=O)[C@@H](NC(=O)OC)C(C)C)n4)ccc3-c3cc4c(F)c(-c5c[nH]c([C@@H]6CCCN6C(=O)C(NC(=O)OC)C6C[C@@H](C)O[C@@H](C)C6)n5)ccc4n32)s1 (single isomer, unassigned) [Compound 360]	8.45
COC(=O)N[C@H](C(=O)N1CCC[C@H]1c1ncc(-c2cc(F)c3c(c2)OC(c2ccc(C#N)s2)n2c-3cc3cc(-c4cnc([C@@H]5CCCN5C(=O)[C@@H](NC(=O)OC)C(C)C)[nH]4)ccc32)[nH]1)C(C)C (single isomer, unassigned) [Compound 18]	8.50
CC[C@@H]1CC(C(NC(=O)OC)C(=O)N2CCC[C@H]2c2ncc(-c3ccc4c(c3)cc3n4C(c4ccc(C5CC5)s4)Oc4cc(-c5cnc([C@@H]6CCCN6C(=O)[C@@H](NC(=O)OC)C(C)C)[nH]5)cc(F)c4-3)[nH]2)C[C@H](CC)O1 (single isomer, unassigned) [Compound 289]	8.91

# value lookup — system HCV replicon 1AY93H, readout pIC50, item COC(=O)NC(C(=O)N1[C@@H]2C[C@@H]2C[C@H]1c1ncc(-c2ccc3c(c2)cc2n3C(c3ccc(C4CC4)s3)Oc3cc(-c4cnc([C@@H]5CCCN5C(=O)[C@@H](NC(=O)OC)C(C)C)[nH]4)cc(F)c3-2)[nH]1)C1C[C@@H](C)O[C@@H](C)C1 (single isomer, unassigned) [Compound 271] 11.40

What about this compound? CC[C@@H]1CC(C(NC(=O)OC)C(=O)N2CCC[C@H]2c2ncc(-c3ccc4c(c3)cc3n4C(c4ccc(C5CC5)s4)Oc4cc(-c5cnc([C@@H]6CCCN6C(=O)[C@@H](NC(=O)OC)C(C)C)[nH]5)cc(F)c4-3)[nH]2)C[C@H](CC)O1 (single isomer, unassigned) [Compound 288] 7.80
